System: Calu-6
Protocol summary: Cancer cell proliferation, Alamar Blue assay 72 hours, Calu-6
Type: cell-based
Experimental setup: Homo sapiens
Parameter measured: IC50 (µM)

> print(dat)
                                   molecule  unit.abbrev  assay.value
1  O=C(/C=C/c1ccc2ccccc2n1)c1ccccc1 [ACT-PFK-076, 1-Phenyl-3-quinolin-2-yl-propenone]           µM          3.3
2  O=C(/C=C/c1ccc2ccccc2n1)c1ccccn1 [ACT-PFK-085, 1-Pyridin-2-yl-3-quinolin-2-yl-propenone]           µM          6.9
3  Cc1ccc(C(=O)/C=C/c2ccc3cccc(O)c3n2)cc1 [ACT-PFK-071]           µM            5

1: O=C(/C=C/c1cc(O)c2ccccc2n1)c1ccncc1 [ACT-PFK-066]
2: Cc1ccc(C(=O)/C=C/c2cc(O)c3ccccc3n2)cc1 [ACT-PFK-073]
In: // compare measured IC50 between 1 and 2 ; output the lower one Give the label under which the chosen entry appears.
Out: 2

###

Protocol summary: Solution stability in clear and amber vials
Assay type: physicochemical
Experimental setup: Cremophor:EtOH:Saline solution, aqueous with cosolvent or surfactant or cyclodextrin, kinetic from dmso stock; Cre:EtOH:Saline, 0 hrs
Counter-ions that a name gives are not always drawn.
Parameter measured: solubility at 0 h (µg/mL)
Please state the figure in µg/mL; there is no need to write the unit.

In: Field request: solubility at 0 h | item: O=C(/C=C/c1ccc2cccc(O)c2n1)c1ccncc1 [PFK-070, HCl]
Out: 1000

###

Reported pIC50 values follow for various compounds
System: Calu-6
Protocol summary: Cancer cell proliferation, Alamar Blue assay 72 hours, Calu-6
Format: cell-based
Experimental setup: Homo sapiens
pIC50: −log10 of the molar value.

> print(dat)
                            compound  parameter.measured  assay.value
1  O=C(/C=C/c1ccc2ccccc2n1)c1ccccc1O               pIC50       < 4.00
2  Nc1ccccc1C(=O)/C=C/c1ccc2ccccc2n1               pIC50       < 4.00

Moving on to the next compound.
In: Form field - read-out: pIC50; system: Calu-6; submitted item: NC(=O)c1ccc(C(=O)/C=C/c2ccc3ccccc3n2)cc1 [ACT-PFK-091, 4-(3-Quinolin-2-yl-acryloyl)-benzamide]
Out: 6.70
